Test system: SW-620 colon
Assay Explanation: NCI tumour cell line growth inhibition, 48 h
# TGI >= 20 µM gives True, anything below gives False

{"columns": ["Compound", "Assigned Class"],
 "data": [
  ["O=C(O)c1ccc(CSc2nc3ccccc3[nH]2)cc1", "True"],
  ["Cc1ccc(C2=NN(c3ccc(S(=O)(=O)NC(=O)NCc4ccccc4)cc3)C(c3ccc(N(C)C)cc3)C2)c(C)c1 (stereo unspecified)", "True"],
  ["CC1(C)N=C(N)N=C(N)N1c1ccc(OCC(=O)Nc2ccc(S(=O)(=O)F)cc2Cl)c(Cl)c1", "True"],
  ["Cc1cn(C2CC(O)C(Cn3nncc3Cn3cnc4c(N)ncnc43)O2)c(=O)[nH]c1=O (stereo unspecified)", "True"],
  ["CC/C(Cl)=N\\OC(=O)Nc1ccc(F)c(Cl)c1", "False"],
  ["Nc1[nH]c(=O)nc2c1cnn2COCCO", "True"],
  ["COc1ccccc1CNCCCN1C(=O)c2ccc3c4c(ccc(c24)C1=O)C(=O)N(CCCNCCCCNCCCN)C3=O", "False"],
  ["O=C1C(Cl)C(c2ccc(O)cc2)N1n1cnc2ccccc2c1=O (stereo unspecified)", "True"],
  ["CN1C(=O)C(N=Nc2ccc([N+](=O)[O-])cc2)SC1=S (stereo unspecified)", "True"],
  ["CCc1ccc(Oc2c(-c3ccc(OCCc4cccc(C(F)(F)F)c4)cc3O)n[nH]c2C(F)(F)F)cc1", "False"],
  ["CCOc1cc(Cl)c(C(C)NC(=O)c2cccc(OC)c2)cc1OCC (stereo unspecified)", "True"],
  ["CS(=O)(=O)Nc1cc(-c2ccc3ncc(C#N)c(Nc4ccc(F)c(Cl)c4)c3c2)cnc1Cl", "False"],
  ["CC(=O)Oc1ccc2c(c1)[nH]c1c3ccc(OC(C)=O)cc3oc(=O)c21", "True"],
  ["CCCCCCCCCCCCCCCCCCN(C)CC(COC)OP(=O)([O-])OCC[N+](C)(C)C (stereo unspecified)", "False"],
  ["COC(C)=NCCC1=CCCCC1", "True"],
  ["O=C(Nc1ccccc1)OCCN=c1c2ccccc2ccc2ccccc12", "True"],
  ["O=C(c1ccccc1)n1cc(/C=C/[N+](=O)[O-])c2ccccc21", "True"],
  ["CCOC(=O)N1c2ccccc2N(C(=O)OCC)C1CC(=O)/C=C/c1ccccc1", "True"],
  ["CO[P@@]1(=O)O[C@@H](c2ccccc2)[C@H](O)[C@@]1(O)c1ccccc1", "True"],
  ["COc1ccc(C[C@H]2COC(=O)[C@@H]2Cc2ccc(Br)cc2)cc1OC", "True"]
]}

----------
Entries and their TGI values follow.
Test system: OVCAR-8 ovarian
Assay Explanation: NCI tumour cell line growth inhibition, 48 h
Attribute Measured: TGI (µM)

{"columns": ["Compound", "Attribute Measured", "Unit String", "Value Relation Sign", "Reading"],
 "data": [
  ["COc1cccc(CCn2c(N)c(-c3cc(Cl)cc(Cl)c3)c3ccc([N+](=O)[O-])cc3c2=O)c1", "TGI", "µM", ">", 100],
  ["CC(C)N(CC(=O)O)CC(=O)O", "TGI", "µM", ">", 100],
  ["N#Cc1c(-c2ccccc2)cn(C(=O)c2ccccc2)c1N", "TGI", "µM", ">", 100],
  ["O=C1CCc2cc(Br)ccc2O1", "TGI", "µM", ">", 100],
  ["CC(C)N(C(C)C)S(=O)(=O)CC12CCC(C/C1=N\\O)C2 (configuration not stated)", "TGI", "µM", ">", 100],
  ["O=C1CCC(=O)c2ccccc2N1", "TGI", "µM", ">", 100],
  ["COc1cc(/C=C2\\CCC/C(=C\\c3cc(CN4CCCC4)c(O)c(OC)c3)C2=O)cc(CN2CCCC2)c1O", "TGI", "µM", ">", 100],
  ["Cc1cc(O)ccc1C1(c2ccc(O)cc2C)OC(=O)c2ccccc21", "TGI", "µM", "=", 46.5],
  ["C=C(C)COc1ccc2c(c1)CCC1C2CCC2(C)C(=O)/C(=N/O)CC12 (configuration not stated)", "TGI", "µM", "=", 24.1],
  ["COc1cccc2nc(Nc3cccc(NC(=O)c4ccc(N5CCN(C)CC5)c(C(F)(F)F)c4)c3)ccc12", "TGI", "µM", "=", 5.93],
  ["Clc1nc(Cl)c2ncn(-c3ccccc3)c2n1", "TGI", "µM", "=", 19],
  ["Cn1c2c(c3ccccc31)CCN1C[C@@H]3CCCC[C@H]3C[C@@H]21", "TGI", "µM", ">", 30.2],
  ["O=C(Cc1cc(O)ccc1O)NO", "TGI", "µM", ">", 100],
  ["CNC(=O)/C=C/C1=CN2C(=O)c3ccc(C)c(O)c3NC(OC)C2C1 (configuration not stated)", "TGI", "µM", "=", 0.192],
  ["CC(=O)Oc1ccc(C2OC(c3ccc4ccccc4c3OC(C)=O)=NN2C(C)=O)c(OC(C)=O)c1 (configuration not stated)", "TGI", "µM", ">", 100],
  ["COc1cc(/C=C2\\CC3C4CCC5=CC(=O)CC[C@]5(C)C4CC[C@]3(C)C2=O)ccc1OCCN1CCCC1 (some centres not stated)", "TGI", "µM", "=", 13.5],
  ["CC(C)c1cnc(-c2cc(Cl)ccc2F)cc1Nc1ccncc1C(=O)NC(CO)CO", "TGI", "µM", "=", 49.8],
  ["CCCCCOC(=O)Nc1nc(=O)n(C2OC(C)C(O)C2O)cc1F (configuration not stated)", "TGI", "µM", ">", 10000],
  ["c1ccc2c(c1)CCN1CCc3ccccc3C1C2 (configuration not stated)", "TGI", "µM", ">", 100],
  ["O=C1C(Cl)C(c2ccc(O)cc2)N1n1cnc2ccccc2c1=O (configuration not stated)", "TGI", "µM", "=", 26],
  ["Nc1c(C(=O)Nc2cccc(Cl)c2)sc2nc3c(cc12)C(O)CCC3 (configuration not stated)", "TGI", "µM", "=", 22.9],
  ["CC(=O)NC1C(OCc2ccccc2)OC(CO)C(O)C1OCC(=O)NC(C(=O)NC(CCC(=O)NCCCCCC(=O)Nc1ccc2c(c1)CN1C(=O)c3ccccc3C1=N2)C(N)=O)C(C)C (configuration not stated)", "TGI", "µM", "=", 79.5],
  ["COc1cc2cc(C(=O)N3CC(CCl)c4ccc(NO)cc43)[nH]c2c(OC)c1OC (configuration not stated)", "TGI", "µM", "=", 11.5],
  ["CN1CCCS/C1=C1/SC(=S)N(c2ccccc2)C1=O", "TGI", "µM", ">", 100],
  ["COc1ccc2nc3c4c(nccc4c2c1)-c1ncccc1C3=O", "TGI", "µM", "=", 6.55],
  ["C/C=C\\C1OC1(C)c1cc(=O)c2c(C)cc3c(c2o1)C(=O)c1c(O)c(C2CC(C)(N(C)C)C(OC(C)=O)C(C)O2)cc(C2CC(N(C)C)C(O)C(C)O2)c1C3=O (configuration not stated)", "TGI", "µM", "=", 0.0177],
  ["CCN1CCN(Cc2ccc(Nc3ncc(F)c(-c4cc(F)c5nc(C)n(C(C)C)c5c4)n3)nc2)CC1", "TGI", "µM", "=", 26.2]
]}

----------
System: SK-MEL-2 melanoma
Assay Explanation: NCI tumour cell line growth inhibition, 48 h
# log10(TGI) listing for each entry below
Attribute Measured: log10(TGI) (log10 of the value in µM)

{"columns": ["Compound", "log10(TGI)"],
 "data": [
  ["COc1ccc(N=Nc2ccc(O)c(=O)cc2)cc1", 1.61],
  ["NC(=O)C1=C(O)[C@@]2(O)C(=O)C3=C(O)c4c(O)cccc4CC3C[C@H]2CC1=O (some centres undefined)", 0.67],
  ["CCN1C(=O)/C(=c2\\sc3n(c2=O)C2C(NN=3)N(CC)C(=O)N2CC)c2ccccc21 (centres undefined)", 1.65],
  ["CC1(C)CC(=O)c2c(-c3ccc(Cl)cc3)c(C#N)c(=S)n(C3OC(CO)C(O)C(O)C3O)c2C1 (centres undefined)", 1.64],
  ["CN(C)CCC(=O)[C@@]1(O)CC[C@H]2[C@@H]3CC=C4C[C@@H](O)CC[C@]4(C)[C@H]3CC[C@@]21C", 1.57],
  ["C/C=C\\C1OC1(C)c1cc(=O)c2c(C)cc3c(c2o1)C(=O)c1c(O)c(C2CC(C)(N(C)C)C(OC(C)=O)C(C)O2)cc(C2CC(N(C)C)C(O)C(C)O2)c1C3=O (centres undefined)", -2.18]
]}

----------
System: BT-549 breast
Assay Explanation: NCI tumour cell line growth inhibition, 48 h

{"columns": ["Molecule", "GI50"],
 "data": [
  ["CC(=O)Oc1ccc(C2OC(c3ccc4ccccc4c3OC(C)=O)=NN2C(C)=O)c(OC(C)=O)c1 (stereo not drawn)", "841 nM"],
  ["CCN1CCN(Cc2ccc(NC(=O)Nc3nc(-c4cc(OC)c(OC)c(OC)c4)cs3)cc2C(F)(F)F)CC1", "1910 nM"],
  ["CCOC(=O)C1=C(C)NC2SC(=O)/C(=C\\c3cccc(Cl)c3)N2C1c1ccccc1 (stereo not drawn)", "> 100000 nM"],
  ["COC(=O)CN1Cc2cc(C)cc(c2O)CN(CC(=O)OC)Cc2cc(C)cc(c2O)CN(CC(=O)OC)Cc2cc(C)cc(c2O)CN(CC(=O)OC)Cc2cc(C)cc(c2O)C1", "15300 nM"],
  ["Cc1cc(S(=O)(=O)Nc2nc3ccccc3c(=O)n2Cc2ccco2)c(S)cc1Cl", "15700 nM"],
  ["COc1ccc(C2=C(c3ccccc3)C(=O)N3CCCC3C2)cc1 (stereo not drawn)", "32500 nM"],
  ["COc1ccc2[nH]c(C(=O)OCc3ccc4c(Br)cc(Br)c(O)c4n3)cc2c1", "881 nM"],
  ["COc1cccc(C(=O)NNc2nc(Cl)nc(N3CCN(C(c4ccccc4)c4ccccc4)CC3)n2)c1", "1630 nM"]
]}

Cited source for all entries: PubChem BioAssay (NCI)
